TESTED_ON: SARS-CoV-2 3CL^pro (Severe acute respiratory syndrome coronavirus 2, UniProt P0DTD1, Q3569A)
CONDITION_LABEL: pH 6.9

SUBSTANCE	^app(kcat/KM)
AAVALQ↓XAHHYAYR [N]	71.8 ± 3.2 M⁻¹ s⁻¹
AAVALQ↓XAHHYAYR [I]	No cleavage
AAVALQ↓XAHHYAYR [K]	No cleavage
AAVALQ↓XAHHYAYR [S]	1,519.1 ± 6.2 M^−1s^−1
AAVALQ↓XAHHYAYR [M]	65.8 ± 1.4 M⁻¹ s⁻¹
AAVALQ↓XAHHYAYR [D]	No cleavage
AAVALQ↓XAHHYAYR [T]	No cleavage
AAVALQ↓XAHHYAYR [P]	No cleavage
AAVALQ↓XAHHYAYR [C]	No cleavage
AAVALQ↓XAHHYAYR [W]	No cleavage
AAVALQ↓XAHHYAYR [G]	1,079.1 ± 12.6 M^−1s^−1
AAVALQ↓XAHHYAYR [E]	No cleavage
